Cited source: patent US7998940B2

System: full length human vWF (SEQ ID NO 7)
PROCEDURE_SUMMARY: dot blot KD determination and extent of binding, full length human vWF;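 also: dot blot binding of aptamers to full length human vWF across a protein titration, incubated 30 minutes at room temperature in 1x DPBS with BSA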
CONDITIONS: Phase 3 modification; full length human vWF, dot blot, 8 point protein titration; read-out: KD
Oligonucleotides are written 5' to 3', each unit as a sugar letter and its base; * is a phosphorothioate linkage, no mark a phosphodiester; rarer units and linkages stand in square brackets, end groups in braces. Plain capitals give the bases only. [invdT] = inverted (3'-3') thymidine; d = 2'-deoxy (DNA); m = 2'-O-methyl
ATTRIBUTE_MEASURED: Kd

SUBSTANCE	ATTRIBUTE_MEASURED	OBSERVED_VALUE
ARC1362: ARC1361 with single phosphorothioate phosphate backbone modification (mGmCmGmU*dGdCdAmGmUmGmCmCmUmUmCmGmGmCdCmGdTmGdCdGdGdTmGmCdCmUdCdCmGmUdCmAmCmGmC[invdT])	Kd	9.9 nM
ARC1365: ARC1361 with single phosphorothioate phosphate backbone modification (mGmCmGmUdGdCdA*mGmUmGmCmCmUmUmCmGmGmCdCmGdTmGdCdGdGdTmGmCdCmUdCdCmGmUdCmAmCmGmC[invdT]; aptamer)	Kd	10.8 nM
dGdGdCdGTdGdCdAdGTdGdCdCTTdCdGdGdCdCdGTdGdCdGdGTdGdCdCTdCdCdGTdCdAdCdGdCdC-3T (DNA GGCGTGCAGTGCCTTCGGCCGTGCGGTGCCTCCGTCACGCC; DNA, [invdT] at 3' end, backbone and methylation of C not given here) [ARC1172, ARC1115 with 3'-inverted dT]	Kd	2 nM
